System: 388556-164-R-J1-PDC complex spheroid viability
Procedure Text: Anticancer human tumor 388556-164-R-J1-PDC patient-derived colon adenocarcinoma cell line growth inhibition [RAS]
Condition Description: second compound 0.1 µM; first compound 1 µM; active compounds read low
Please go through the items and note down their viability, T/C.
# unit: % | format: bare number

Lookup: # get_value(readout= viability, T/C, system= 388556-164-R-J1-PDC complex spheroid viability) for CC1(O)CCCC1n1c(=O)c(C(F)F)cc2cnc(NC3CCN(S(C)(=O)=O)CC3)nc21 (stereo not given) + C=CC(=O)N1CCN(c2nc(OCC3CCCN3C)nc3c(F)c(-c4nc(N)cc(C)c4C(F)(F)F)c(Cl)cc23)C(C)C1
Found: 99.2

Lookup: # get_value(readout= viability, T/C, system= 388556-164-R-J1-PDC complex spheroid viability) for CCN1CCN(Cc2ccc(Nc3ncc(F)c(-c4cc(F)c5nc(C)n(C(C)C)c5c4)n3)nc2)CC1 + C=CC(=O)N1CCN(c2nc(OCC3CCCN3C)nc3c(F)c(-c4nc(N)cc(C)c4C(F)(F)F)c(Cl)cc23)C(C)C1
Found: 84.5

Lookup: # get_value(readout= viability, T/C, system= 388556-164-R-J1-PDC complex spheroid viability) for Nc1ccn(C2OC(CO)C(O)C2(F)F)c(=O)n1 (stereo not given) + C=CC(=O)N1CCN(c2nc(OCC3CCCN3C)nc3c(F)c(-c4nc(N)cc(C)c4C(F)(F)F)c(Cl)cc23)C(C)C1
Found: 67.1

Lookup: # get_value(readout= viability, T/C, system= 388556-164-R-J1-PDC complex spheroid viability) for Cc1nc(N2CCC3(CC2)COC(C)C3N)c(CO)nc1Sc1ccnc(N)c1Cl (stereo not given) + C#Cc1c(F)ccc2cc(O)cc(-c3ncc4c(N5CC6CCC(C5)N6)nc(OCC56CCCN5CC(F)C6)nc4c3F)c12
Found: 62.5

Lookup: # get_value(readout= viability, T/C, system= 388556-164-R-J1-PDC complex spheroid viability) for Cc1nc(N2CCC3(CC2)COC(C)C3N)c(CO)nc1Sc1ccnc(N)c1Cl (stereo not given) + C=CC(=O)N1CCN(c2nc(OCC3CCCN3C)nc3c(F)c(-c4nc(N)cc(C)c4C(F)(F)F)c(Cl)cc23)C(C)C1
Found: 60.9

###

System: 388556-164-R-J1-PDC complex spheroid viability
Procedure Text: Anticancer human tumor 388556-164-R-J1-PDC cell line growth inhibition [RAS]
Condition Description: second compound 0.000949 µM; first compound 0.0316 µM; active compounds read low
Please go through the items and note down their viability, T/C.
# unit: % | format: bare number

Lookup: GET /values?readout=viability, T/C&item= CC(C)n1nc(-c2ccc3oc(N)nc3c2)c2c(N)ncnc21 + CCn1c(-c2cccnc2C(C)OC)c2c3cc(ccc31)N1CCOC(CC(NC(=O)C(C(C)C)N(C)C(=O)C3(F)CCN(C(=O)C#CC(C)(C)N(C)C)CC3)C(=O)N3CCCC(N3)C(=O)OCC(C)(C)C2)C1
Found: 63.6

Lookup: GET /values?readout=viability, T/C&item= O=C(c1ccc(F)c(F)c1Nc1ccc(I)cc1F)N1CC(O)([C@@H]2CCCCN2)C1 + CCn1c(-c2cc(N3CCN(C)CC3)cnc2C(C)OC)c2c3cc(ccc31)-c1csc(n1)CC(NC(=O)C1CC1C)C(=O)N1CCCC(N1)C(=O)OCC(C)(C)C2
Found: 72.6

Lookup: GET /values?readout=viability, T/C&item= NC1c2ccccc2OC12CCN(c1cnc3c(N4CCCc5ncccc54)n[nH]c3n1)CC2 (centres undefined) + CCn1c(-c2cc(N3CCN(C)CC3)cnc2C(C)OC)c2c3cc(ccc31)-c1csc(n1)CC(NC(=O)C1CC1C)C(=O)N1CCCC(N1)C(=O)OCC(C)(C)C2
Found: 64.5

Lookup: GET /values?readout=viability, T/C&item= CC(=O)OC12COC1CC(O)C1(C)C(=O)C(O)C3=C(C)C(OC(=O)C(O)C(NC(=O)OC(C)(C)C)c4ccccc4)CC(O)(C(OC(=O)c4ccccc4)C21)C3(C)C (centres undefined) + CCn1c(-c2cc(N3CCN(C)CC3)cnc2C(C)OC)c2c3cc(ccc31)-c1csc(n1)CC(NC(=O)C1CC1C)C(=O)N1CCCC(N1)C(=O)OCC(C)(C)C2
Found: 77.2

###

Please go through the items and note down their viability, T/C.
Test system: 388556-164-R-J1-PDC complex spheroid viability
Procedure Text: Anticancer human tumor 388556-164-R-J1-PDC cell line growth inhibition [RAS];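 further: spheroids exposed to compound for 7 days before readout; 100% = DMSO vehicle control luminescence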
Condition Description: second compound 0.1 µM; first compound 0.0316 µM; active compounds read low
# unit: % | format: bare number

Lookup: GET /values?readout=viability, T/C&item= CC(C)NCC(C(=O)N1CCN(c2ncnc3c2C(C)CC3O)CC1)c1ccc(Cl)cc1 (stereo not given) + C#Cc1c(F)ccc2cc(O)cc(-c3ncc4c(N5CC6CCC(C5)N6)nc(OCC56CCCN5CC(F)C6)nc4c3F)c12
Found: 98.5

Lookup: GET /values?readout=viability, T/C&item= CC(=O)OC12COC1CC(O)C1(C)C(=O)C(O)C3=C(C)C(OC(=O)C(O)C(NC(=O)OC(C)(C)C)c4ccccc4)CC(O)(C(OC(=O)c4ccccc4)C21)C3(C)C (stereo not given) + C=CC(=O)N1CCN(c2nc(OCC3CCCN3C)nc3c(F)c(-c4nc(N)cc(C)c4C(F)(F)F)c(Cl)cc23)C(C)C1
Found: 78.3

Lookup: GET /values?readout=viability, T/C&item= Cc1nc(N2CCC3(CC2)COC(C)C3N)c(CO)nc1Sc1ccnc(N)c1Cl (stereo not given) + C#Cc1c(F)ccc2cc(O)cc(-c3ncc4c(N5CC6CCC(C5)N6)nc(OCC56CCCN5CC(F)C6)nc4c3F)c12
Found: 98.4

Lookup: GET /values?readout=viability, T/C&item= C[C@@H](NC(=O)c1ncnc(N)c1Cl)c1ncc(C(=O)Nc2cc(C(F)(F)F)c(Cl)cn2)s1 + C#Cc1c(F)ccc2cc(O)cc(-c3ncc4c(N5CC6CCC(C5)N6)nc(OCC56CCCN5CC(F)C6)nc4c3F)c12
Found: 114

Lookup: GET /values?readout=viability, T/C&item= C=CC(=O)Nc1cc(Nc2nccc(-c3cn(C)c4ccccc34)n2)c(OC)cc1N(C)CCN(C)C + C#Cc1c(F)ccc2cc(O)cc(-c3ncc4c(N5CC6CCC(C5)N6)nc(OCC56CCCN5CC(F)C6)nc4c3F)c12
Found: 105

###

Please go through the items and note down their viability, T/C.
Test system: 388556-164-R-J1-PDC complex spheroid viability
Procedure Text: Anticancer human tumor 388556-164-R-J1-PDC cell line growth inhibition [RAS];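 further: spheroids exposed to compound for 7 days before readout; 100% = DMSO vehicle control luminescence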
Condition Description: second compound 0.003 µM; first compound 0.1 µM; active compounds read low
# unit: % | format: bare number

Lookup: GET /values?readout=viability, T/C&item= CC(C)n1nc(-c2ccc3oc(N)nc3c2)c2c(N)ncnc21 + CCn1c(-c2cccnc2C(C)OC)c2c3cc(ccc31)N1CCOC(CC(NC(=O)C(C(C)C)N(C)C(=O)C3(F)CCN(C(=O)C#CC(C)(C)N(C)C)CC3)C(=O)N3CCCC(N3)C(=O)OCC(C)(C)C2)C1
Found: 37.7

Lookup: GET /values?readout=viability, T/C&item= CC(Nc1ccc2c(c1)OCCn1cc(N3C(=O)OCC3C(F)F)nc1-2)C(N)=O (configuration not stated) + CCn1c(-c2cc(N3CCN(C)CC3)cnc2C(C)OC)c2c3cc(ccc31)-c1csc(n1)CC(NC(=O)C1CC1C)C(=O)N1CCCC(N1)C(=O)OCC(C)(C)C2
Found: 79.2

###

System: 388556-164-R-J1-PDC complex spheroid viability
Procedure Text: Anticancer human tumor 388556-164-R-J1-PDC cell line growth inhibition [RAS];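 further: spheroids exposed to compound for 7 days before readout; 100% = DMSO vehicle control luminescence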
Condition Description: second compound 0.000949 µM; first compound 0.0316 µM; active compounds read low
Readout Name: viability, T/C (%)
# unit: % | format: bare number

Lookup: GET /values?readout=viability, T/C&item= CC1(O)CCCC1n1c(=O)c(C(F)F)cc2cnc(NC3CCN(S(C)(=O)=O)CC3)nc21 (configuration not stated) + CCn1c(-c2cc(N3CCN(C)CC3)cnc2C(C)OC)c2c3cc(ccc31)-c1csc(n1)CC(NC(=O)C1CC1C)C(=O)N1CCCC(N1)C(=O)OCC(C)(C)C2
Found: 91.1

Lookup: GET /values?readout=viability, T/C&item= Cc1nc(N2CCC3(CC2)COC(C)C3N)c(CO)nc1Sc1ccnc(N)c1Cl (configuration not stated) + CCn1c(-c2cc(N3CCN(C)CC3)cnc2C(C)OC)c2c3cc(ccc31)-c1csc(n1)CC(NC(=O)C1CC1C)C(=O)N1CCCC(N1)C(=O)OCC(C)(C)C2
Found: 84.3

###

System: 388556-164-R-J1-PDC complex spheroid viability
Procedure Text: Anticancer human tumor 388556-164-R-J1-PDC cell line growth inhibition [RAS];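 further: spheroids exposed to compound for 7 days before readout; 100% = DMSO vehicle control luminescence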
Condition Description: second compound 0.03 µM; first compound 10 µM; active compounds read low
Readout Name: viability, T/C (%)
# unit: % | format: bare number

Lookup: GET /values?readout=viability, T/C&item= CC(C)NCC(C(=O)N1CCN(c2ncnc3c2C(C)CC3O)CC1)c1ccc(Cl)cc1 (configuration not stated) + CCn1c(-c2cc(N3CCN(C)CC3)cnc2C(C)OC)c2c3cc(ccc31)-c1csc(n1)CC(NC(=O)C1CC1C)C(=O)N1CCCC(N1)C(=O)OCC(C)(C)C2
Found: 47.8

Lookup: GET /values?readout=viability, T/C&item= CCC(CC)c1cc(NC2CCC(N)C2)n2nccc2n1 (configuration not stated) + CCn1c(-c2cccnc2C(C)OC)c2c3cc(ccc31)N1CCOC(CC(NC(=O)C(C(C)C)N(C)C(=O)C3(F)CCN(C(=O)C#CC(C)(C)N(C)C)CC3)C(=O)N3CCCC(N3)C(=O)OCC(C)(C)C2)C1
Found: 35.6
